meta.source: ChEMBL document CHEMBL1138244

assay: Inhibition of rat human chimera TRPV1 channel expressed in CHO cells; format: cell-based
Where pIC50 equals or exceeds 6, the correct label is True; where it does not, the label is False.

For orientation, consider the following solved cases.
{"compound": "CC(C)(C)c1cccc(/C=C/C(=O)Nc2ccc3c(c2)OCCO3)c1", "answer-label": "True"}
{"compound": "O=C(/C=C/c1ccc(O)cc1)Nc1ccc2c(c1)OCCO2", "answer-label": "False"}

Q) Hi team, for COc1ccc(/C=C/C(=O)Nc2ccc3c(c2)OCCO3)cc1 , is the recorded pIC50 at or above 6?
A) False

Q) Quick check: does CC(C)(C)c1ccc(/C(=C/C(=O)Nc2ccc3c(c2)OCCO3)c2cccnc2)cc1 have pIC50 greater than or equal to 6?
A) True

Q) For this compound, is measured pIC50 6 or higher? O=C(/C=C/c1cccc(Br)c1)Nc1ccc2c(c1)OCCO2
A) True

Q) I'd appreciate it if you could say whether CC(C)(C)c1ccc(/C(=C/C(=O)Nc2ccc3c(c2)OCCO3)c2ccccc2)cc1 has pIC50 at least equal to 6.
A) True

Q) Does the reported pIC50 for CC(C)(C)c1ccc(/C=C/C(=O)Nc2ccc3c(c2)OCCO3)cc1 (stereo in doubt; 1) fall at or above the 6 mark?
A) True

Q) Is pIC50 for O=C(/C=C/c1ccc(Cl)cc1)Nc1ccc2c(c1)OCCO2 at or above 6?
A) True

Q) Decide: pIC50 of O=C(/C=C/c1ccc(I)cc1)Nc1ccc2c(c1)OCCO2 >= 6?
A) True

---

test: Inhibition of rat human chimera TRPV1 channel expressed in CHO cells; type: cell-based
measured-attribute: IC50 (nM)
Quick reminder: number only, in nM, skip the unit.

{"query-smiles": "CCOC(=O)CC/C(=C\\C(=O)Nc1ccc2c(c1)OCCO2)c1ccc(C(C)(C)C)cc1", "reading-unit": "nM", "value-measured": 56}

Q) Supply measured IC50 of CC(C)(C)c1ccc(/C(=C\C(=O)Nc2ccc3c(c2)OCCO3)c2ccc(F)cc2)cc1 in your reply.
A) 39

Q) State, in one line, measured IC50 of Cc1ccc(/C=C/C(=O)Nc2ccc3c(c2)OCCO3)cc1
A) 293

Q) For the compound CCC/C(=C\C(=O)Nc1ccc2c(c1)OCCO2)c1ccc(C(C)(C)C)cc1 , give its reported IC50.
A) 120

Q) Please report the measured IC50 for CC(C)(C)c1ccc(/C=C/C(=O)Nc2cccc(OCCO)c2)cc1
A) 859

---

test: Inhibition of rat human chimera TRPV1 channel expressed in CHO cells; format: cell-based
In this section we review reported pIC50 values for a set of compounds.
Convention used: pIC50 is expressed as -log10 of the molar concentration.

# example entries with known answers
{"compound": "O=C(/C=C/c1ccc(C(F)(F)F)nc1)Nc1ccc2c(c1)OCCO2", "value-measured": 5.97}
{"compound": "COc1cccc(/C(=C/C(=O)Nc2ccc3c(c2)OCCO3)c2ccc(C(C)(C)C)cc2)c1", "value-measured": 6.81}
{"compound": "COc1ccc(/C(=C/C(=O)Nc2ccc3c(c2)OCCO3)c2ccc(C(C)(C)C)cc2)cc1", "value-measured": 7.34}
{"compound": "O=C(/C=C/c1ccc(C(F)(F)F)cc1Br)Nc1ccc2c(c1)OCCO2", "value-measured": 6.34}
{"compound": "CC(C)(C)c1ccc(/C=C/C(=O)Nc2ccc3c(c2)OCCO3)cc1 (stereo in doubt; 91)", "value-measured": 6.87}
{"compound": "CC(C)(C)c1ccc(/C=C/C(=O)Nc2ccc3c(c2)OC[C@@H](CN)O3)cc1", "value-measured": 5.90}
{"compound": "Cc1ccccc1/C(=C/C(=O)Nc1ccc2c(c1)OCCO2)c1ccc(C(C)(C)C)cc1", "value-measured": 6.55}
{"compound": "O=C(/C=C/c1ccc(C2CC2)cc1)Nc1ccc2c(c1)OCCO2", "value-measured": 6.38}

Please look at the following compound next.
Q) For the compound CC(C)(C)c1ccc(/C(=C/C(=O)Nc2ccc3c(c2)OCCO3)c2ccc(C(F)(F)F)cc2)cc1 , give its measured pIC50 value.
A) 7.33

---

assay: Inhibition of rat human chimera TRPV1 channel expressed in CHO cells; type: cell-based
measured-attribute: pIC50
// response body must contain only the number

Recorded results for 4 molecules are shown here.
{"query-smiles": "CN(C)c1ccc(/C=C/C(=O)Nc2ccc3c(c2)OCCO3)cc1", "pIC50": 5.88}
{"query-smiles": "CN(C(=O)/C=C/c1ccc(C(C)(C)C)cc1)c1ccc2c(c1)OCCO2", "pIC50": 4.71}
{"query-smiles": "CC(C)(C)c1ccc(/C=C/C(=O)Nc2ccc3c(c2)OCCO3)c(Br)c1", "pIC50": 6.8}
{"query-smiles": "O=C(/C=C/c1ccc(C(F)(F)F)cc1Br)Nc1ccc2c(c1)OCCO2", "pIC50": 6.34}

Q) Input O=C(/C=C/c1cccc(OC(F)(F)F)c1)Nc1ccc2c(c1)OCCO2 , output reported pIC50.
A) 6.79

Q) Supply recorded pIC50 for Cc1ccc(/C=C/C(=O)Nc2ccc3c(c2)OCCO3)cc1C here.
A) 6.34

---

assay: Inhibition of rat human chimera TRPV1 channel expressed in CHO cells; type: cell-based
measured-attribute: pIC50
Just so you know, pIC50 here is -log10 of the concentration in molar units; reply with that number alone.

{"query-smiles": "CC(C)(C)c1ccc(/C=C/C(=O)Nc2ccc3c(c2)OCCO3)c(C2CCCC2)c1", "pIC50": 8.22}
{"query-smiles": "CC(C)(C)c1ccc(/C(=C\\C(=O)Nc2ccc3c(c2)OCCO3)c2cccc(N)c2)cc1", "pIC50": 6.48}

Q) Quote pIC50 reported for O=C(/C=C/c1ccc(Cl)cc1)Nc1ccc2c(c1)OCCO2 please.
A) 6.67

Q) Entry CC(C)(C)c1ccc(/C=C/C(=O)Nc2ccc3c(c2)OCCO3)cc1.Cl needs its pIC50 filled in; supply it.
A) 6.26

Q) Hello, please tell me recorded pIC50 for this one: O=C(/C=C/c1cccc(OC(F)(F)F)c1)Nc1ccc2c(c1)OCCO2
A) 5.79

---

assay: Inhibition of rat human chimera TRPV1 channel expressed in CHO cells; type: cell-based
measured-attribute: IC50 (nM)
Reply numerically in nM, unit not repeated.

{"query-smiles": "CC(C)Cc1ccc(/C=C/C(=O)Nc2ccc3c(c2)OCCO3)cc1", "IC50 / nM": 1010}

Q) Name the recorded IC50 of the molecule listed here: C/C(=C\C(=O)Nc1ccc2c(c1)OCCO2)c1ccc(C(C)(C)C)cc1
A) 82

Q) Quote IC50 reported for O=C(/C=C/c1cccc(Br)c1)Nc1ccc2c(c1)OCCO2 please.
A) 404

---

# pIC50 per entry
experiment: Inhibition of rat human chimera TRPV1 channel expressed in CHO cells; type: cell-based
Give only the figure.

The examples below pair each entry with its known result.
{"query-smiles": "CC(C)C/C(=C\\C(=O)Nc1ccc2c(c1)OCCO2)c1ccc(C(C)(C)C)cc1", "measured-attribute": "pIC50", "value-measured": 7.38}
{"query-smiles": "CC(C)(C)c1ccc(/C=C/C(=O)Nc2ccc3c(c2)OCCO3)cn1", "measured-attribute": "pIC50", "value-measured": 6.74}
{"query-smiles": "CC(C)(C)c1ccc(/C=C/C(=O)Nc2ccccc2)cc1", "measured-attribute": "pIC50", "value-measured": 6.57}

Now let's try a different one.
Q) State its pIC50: O=C(/C=C/c1ccc(C(F)(F)F)cc1C(F)(F)F)Nc1ccc2c(c1)OCCO2
A) 6.35

---

assay: Inhibition of rat human chimera TRPV1 channel expressed in CHO cells; assay type: cell-based
measured-attribute: pIC50
Answer using only a numeral; do not append any unit.

Known results for compounds:
{"query-smiles": "CC(C)(C)c1ccc(/C=C\\C(=O)Nc2ccc3c(c2)OCCO3)cc1", "value-measured": 5.72}
{"query-smiles": "COC[C@@H]1COc2cc(NC(=O)/C=C/c3ccc(C(C)(C)C)cc3)ccc2O1", "value-measured": 5.99}

In the following, a different compound is considered.
Q) Provide measured pIC50 value, entry: CC(C)(C)c1ccc(CCC(=O)Nc2ccc3c(c2)OCCO3)cc1
A) 6.65

---

assay: Inhibition of rat human chimera TRPV1 channel expressed in CHO cells; type: cell-based
Reported pIC50 by item:
Please note pIC50 is a logarithmic value: minus log10 of concentration in mol/L. Answer with that number alone.

Before answering, review these 6 worked examples.
{"query-smiles": "C=Cc1ccc(/C=C/C(=O)Nc2ccc3c(c2)OCCO3)cc1", "pIC50": 5.45}
{"query-smiles": "O=C(/C=C/c1ccc(C(F)(F)F)nc1N1CCOCC1)Nc1ccc2cccnc2c1", "pIC50": 8.70}
{"query-smiles": "CC(C)(C)c1ccc(/C(=C\\C(=O)Nc2ccc3c(c2)OCCO3)c2ccc(Cl)cc2)cc1", "pIC50": 7.38}
{"query-smiles": "CC(C)(C)c1ccc(/C=C/C(=O)Nc2ccc3c(c2)OCC(=O)N3)cc1", "pIC50": 6.41}
{"query-smiles": "CC(C)(C)c1ccc(/C=C/C(=O)Nc2ccc3c(c2)OCCO3)nc1", "pIC50": 5.97}
{"query-smiles": "O=C(/C=C/c1ccc(C(F)(F)F)cc1)Nc1ccc2c(c1)OCCO2", "pIC50": 6.92}

Now for the molecule whose pIC50 we want.
Q) Determine its reported pIC50: CC(C)(C)c1ccc(/C=C/C(=O)Nc2ccc3c(c2)O[C@@H](CO)CO3)cc1
A) 6.60
